experiment: chemical genetic growth profiling, strain panel (AID 1159580);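 note: tested at 20 µM; growth read once vehicle control cultures reached saturation at 30 °C; 1 = growth at the plate median or of vehicle wells; lower values mean less growth of the strain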; settings: S. cerevisiae deletion strains, growth OD, locus YBR171W, strain sec66, stronger effect = lower value
In all, about 5,500 compounds went through this assay and about 2,000 (36%) were called active. About 18% were inconclusive and are not listed. The list shows a part of the results.
Listing: normalized growth of selected compounds
Note: the reply should be a number with no unit written.

Example results:
- COMPOUND: "c1ccc2c(c1)CN1CCCC1=N2"
  READOUT_VALUE: 1
- COMPOUND: "C[C@@H](N)[C@@H](O)c1ccccc1"
  READOUT_VALUE: 1
- COMPOUND: "Cc1cc(O)c(C=O)c2c1C(=O)Oc1c(COC(=O)/C=C/C(=O)O)c(O)c(C(=O)O)c(C)c1O2"
  READOUT_VALUE: 0.983

Can you look up the measured normalized growth of "NNCCc1ccccc1" for me?
1.02

Query "CC12CC3CC(C)(C1)CC(N)(C3)C2" next
0.98

Quick one: "C[C@H](N)[C@H](O)c1cccc(O)c1"
1.02

Same lookup for C[C@]12C=CC(=O)C=C1CCC1C3C[C@@H](O)[C@](O)(C(=O)CO)[C@@]3(C)C[C@H](O)[C@@]12F (some centres undefined) , please.
0.976

Ok, now Nc1ccn(C2O[C@H](CO)[C@@H](O)[C@H]2O)c(=O)n1 (some centres undefined)
0.991

Same question, "S=P(N1CC1)(N1CC1)N1CC1" this time
1.01

---

Catalogue of normalized growth values
experiment: chemical genetic growth profiling, strain panel (AID 1159580); settings: S. cerevisiae deletion strains, growth OD, strain wtn01, stronger effect = lower value
About 2,000 (36%) of roughly 5,500 compounds were called active. Not shown: some 18% with an inconclusive outcome. This is one part of the list.
// print number alone

Answered examples (5):
- RECORD_SMILES: "CO[C@]12C[C@@H](COC(=O)c3cncc(Br)c3)CN(C)[C@@H]1Cc1cn(C)c3cccc2c13"
  READOUT_VALUE: 1.02
- RECORD_SMILES: "C[C@H](N)[C@H](O)c1cccc(O)c1"
  READOUT_VALUE: 0.998
- RECORD_SMILES: "C[C@H](N)[C@H](O)c1ccccc1"
  READOUT_VALUE: 0.983
- RECORD_SMILES: "NNCCc1ccccc1"
  READOUT_VALUE: 0.992
- RECORD_SMILES: "COc1c(Cl)ccc(Cl)c1C(=O)O"
  READOUT_VALUE: 1.01

What value of normalized growth has been reported for the following molecule? "CN(C)C(=O)Nc1ccc(Cl)c(Cl)c1"
0.994

# iterate: "CCCC(C(=O)OCCN(CC)CC)(c1ccccc1)c1ccccc1"
0.974

---

test: chemical genetic growth profiling, strain panel (AID 1159580); details: S. cerevisiae deletion strains, growth OD, locus YOR070C, strain gyp1, stronger effect = lower value
Out of some 5,500 compounds screened, about 2,000 (36%) were called active. Inconclusive results (about 18%) are left out. The list shows a part of the results.
This listing pairs molecules with measured normalized growth.
Please state the value as a number alone, without comment.

Guide cases for normalized growth, answers given:
- MOLECULE: "C=C1[C@H]2CC[C@@]3(C)[C@H](c4ccoc4)OC(=O)C[C@]13O[C@H]1C[C@H](O)C(C)(C)[C@H](CC(=O)OC)[C@]12C"
  READOUT: "normalized growth"
  READOUT_VALUE: 1.03
- MOLECULE: "CN(C)CCC(c1ccc(Br)cc1)c1ccccn1 (stereo not given)"
  READOUT: "normalized growth"
  READOUT_VALUE: 0.99
- MOLECULE: "Nc1ccn(C2O[C@H](CO)[C@@H](O)[C@H]2O)c(=O)n1 (stereo not given in full)"
  READOUT: "normalized growth"
  READOUT_VALUE: 1
- MOLECULE: "Cc1nc2ccccn2c(=O)c1CCN1CCC(C(=O)c2ccc(F)cc2)CC1"
  READOUT: "normalized growth"
  READOUT_VALUE: 0.988
- MOLECULE: "O=C(O)c1ccccc1C(=O)Nc1ccc(S(=O)(=O)Nc2nccs2)cc1"
  READOUT: "normalized growth"
  READOUT_VALUE: 0.976
- MOLECULE: "N[C@H](Cc1ccccc1)C(=O)O"
  READOUT: "normalized growth"
  READOUT_VALUE: 0.983
- MOLECULE: "Nc1ccncc1"
  READOUT: "normalized growth"
  READOUT_VALUE: 0.999
- MOLECULE: "Cc1ncc([N+](=O)[O-])n1CC(C)O (stereo not given)"
  READOUT: "normalized growth"
  READOUT_VALUE: 0.985

Endpoint output: normalized growth of "CN(C)N=Nc1nc[nH]c1C(N)=O" . Value?
0.993

Same lookup for CC(CN(C)C)CN1c2ccccc2CCc2ccccc21 (stereo not given) , please.
1.01

Similarly, "CCCCC[C@H](CC(=O)NO)C(=O)N[C@H](C(=O)N1CCC[C@H]1CO)C(C)C" ?
1

Try this molecule too: "CNC(=O)Oc1ccc2c(c1)[C@]1(C)CCN(C)[C@@H]1N2C"
1.03

Lookup NCC(CC(=O)O)c1ccc(Cl)cc1 (stereo not given)
0.98

Entry to check: "COc1c2ccccc2nc2occc12"
0.965

Subsequent entry: CC(CN1c2ccccc2Sc2ccccc21)N(C)C (stereo not given)
0.965

---

Measured normalized growth, listed per entry.
assay: chemical genetic growth profiling, strain panel (AID 1159580);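 note: tested at 20 µM; growth read once vehicle control cultures reached saturation at 30 °C; 1 = growth at the plate median or of vehicle wells; lower values mean less growth of the strain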; settings: S. cerevisiae deletion strains, growth OD, locus YAL013W, strain DEP1, stronger effect = lower value
Hit rate of the full screen: of about 5,500 compounds, about 2,000 (36%) were called active. Inconclusive results (about 18%) are left out. This is one part of the list.
Form field (numeric): enter value without unit.

Reference set (4 entries):
- COMPOUND: "Cc1ccc2c(c1)N(CCO)C(C)(C)CC2C (configuration not stated)"
  normalized growth: 1
- COMPOUND: "CC(=O)Nc1nnc(S(N)(=O)=O)s1"
  normalized growth: 0.987
- COMPOUND: "S=P(N1CC1)(N1CC1)N1CC1"
  normalized growth: 1.01
- COMPOUND: "Cc1ccc(/C(N)=N\\O)cc1F"
  normalized growth: 0.998

Okay, now this compound:
# get_value(readout='normalized growth', item= "Cc1ccc2cc(NC(=O)c3ccco3)ccc2n1" )
0.987

---

experiment: chemical genetic growth profiling, strain panel (AID 1159580);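 note: tested at 20 µM; growth read once vehicle control cultures reached saturation at 30 °C; 1 = growth at the plate median or of vehicle wells; lower values mean less growth of the strain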; conditions: S. cerevisiae deletion strains, growth OD, locus YDR334W, strain swr1, stronger effect = lower value
Hit rate of the full screen: of about 5,500 compounds, about 2,000 (36%) were called active. Roughly 18% stayed inconclusive and do not appear here. The list shows a part of the results.
READOUT: normalized growth
Hey, just send me the number, nothing else.

- COMPOUND: "CC(=O)O[C@H]1C[C@@H](OC(C)=O)C(C)(C)C2CC(=O)[C@]3(C)C(CC[C@@]4(C)[C@H](c5ccoc5)OC(=O)[C@H]5O[C@]543)[C@]21C (stereo partly drawn)"
  normalized growth: 0.983

Given Cc1ncc([N+](=O)[O-])n1CC(C)O (stereo not drawn) , state its recorded normalized growth.
0.957

Same question, "O=[N+]([O-])c1cccc2c(Br)[nH]nc12" this time
0.956

Try this compound next: "Nc1ccncc1"
0.997

Now try CC(CCC(=O)O)[C@H]1CCC2C3C(C[C@H](O)[C@@]21C)[C@@]1(C)CC[C@@H](O)C[C@H]1C[C@H]3O (stereo partly drawn) .
1.03

Repeat with "COc1cc(C)c(C(=O)Oc2cc(C)c(C(=O)O)c(O)c2C)c(OC)c1C"
1

Param item: "Cc1nc2ccccn2c(=O)c1CCN1CCC(C(=O)c2ccc(F)cc2)CC1"
0.982

Same question, "Clc1ccc2c(c1)C(N1CCNCC1)=Nc1ccccc1O2" this time
0.957

---

assay: chemical genetic growth profiling, strain panel (AID 1159580);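 note: tested at 20 µM; growth read once vehicle control cultures reached saturation at 30 °C; 1 = growth at the plate median or of vehicle wells; lower values mean less growth of the strain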; conditions: S. cerevisiae deletion strains, growth OD, locus YPL078C, strain atp4, stronger effect = lower value
The campaign covered roughly 5,500 compounds. About 2,000 (36%) were called active. Inconclusive results (about 18%) are left out. The list shows a part of the results.
READOUT: normalized growth
Answer as a number with no unit attached.

- MOLECULE: "CC1CCC2(OC1)OC1CC3C4CCC5C[C@@H](O)CCC5(C)C4=CCC3(C)C1[C@@H]2C (stereo partly drawn)"
  READOUT_VALUE: 0.991
- MOLECULE: "CN(C)N=Nc1nc[nH]c1C(N)=O"
  READOUT_VALUE: 0.928

Then there is this molecule:
Which normalized growth value is on record for "S=P(N1CC1)(N1CC1)N1CC1" ?
1.01
